Numbers sourced from patent US6211155A.

- System: Thy 1.2+ thymocytes of the epidermis
- test-summary: Thy 1.2+ epidermal cell density after topical application to mouse ear (immunofluorescence)
- Type: in vivo, C57-BL/6 mice
- reported-conditions: dose 1.00 Nanog., C 57 BL/6 mice
Where no end group is shown, it is not given here.
quantity-measured: Number of Thy 1.2+ cells per mm^2 of epidermis, batch 3

[
  {
    "substance": "A-Pyr-Ala-Lys-Ser-Gln-Gly-Gly-Ser-Asn-NH2 (AKSQGGSN; not fully specified (N-terminus, C-terminus); printed as A-Pyr-Ala-Lys-Ser-Gln-Gly-Gly-Ser-Asn-NH2) [ETF-I, A of the tested sample not restated]",
    "tested-on": "Thy 1.2+ thymocytes of the epidermis",
    "measured-value": "208 cells per mm^2"
  },
  {
    "substance": "A-Arg-Lys-Asp-Val-NH2 (RKDV; not fully specified (N-terminus, C-terminus)) [ETF-XIX, A not specified for the tested sample]",
    "tested-on": "Thy 1.2+ thymocytes of the epidermis",
    "measured-value": "230 cells per mm^2"
  },
  {
    "substance": "Adipoyl-Ala-Lys-Ser-Gln-Gly-Gly-Ser-Asn-NH2 (AKSQGGSN-NH2; not fully specified (N-terminus)) [ETF-III, A of the tested sample not restated]",
    "tested-on": "Thy 1.2+ thymocytes of the epidermis",
    "measured-value": "216 cells per mm^2"
  },
  {
    "substance": "A-Arg-Lys-Asp-Val-Tyr-NH2 (RKDVY; not fully specified (N-terminus, C-terminus)) [ETF-XV, A not specified for the tested sample; b149 names acetic acid-Arg-Lys-Asp-Val-Tyr-NH2]",
    "tested-on": "Thy 1.2+ thymocytes of the epidermis",
    "measured-value": "188 cells per mm^2"
  }
]
